target: h-GABAA α2β2γ1 (Homo sapiens, UniProt P47869+Q8N1C3); test: Two-electrode voltage clamp electrophysiology in Xenopus oocytes, modulation of GABA EC20 current; type: cell-based; design: host or cells: Xenopus laevis oocytes, RNA micro-injection; details: Table 2; % modulation of GABA EC20 = 100*(Fold increase−1); compound at approx. 30-fold Ki
Sequence (P47869 29-451): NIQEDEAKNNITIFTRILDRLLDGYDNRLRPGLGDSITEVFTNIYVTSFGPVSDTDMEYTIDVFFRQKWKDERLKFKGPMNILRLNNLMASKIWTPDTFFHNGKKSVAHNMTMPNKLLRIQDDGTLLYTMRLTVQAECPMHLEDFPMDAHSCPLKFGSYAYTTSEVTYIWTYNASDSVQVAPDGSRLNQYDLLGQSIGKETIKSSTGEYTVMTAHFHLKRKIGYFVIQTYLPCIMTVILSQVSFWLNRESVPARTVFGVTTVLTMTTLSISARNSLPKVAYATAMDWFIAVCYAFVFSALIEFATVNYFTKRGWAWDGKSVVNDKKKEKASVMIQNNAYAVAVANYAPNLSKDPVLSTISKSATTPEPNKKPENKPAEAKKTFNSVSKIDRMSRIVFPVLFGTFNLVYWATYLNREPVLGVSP
Sequence (P47870 25-512 partner limits assumed): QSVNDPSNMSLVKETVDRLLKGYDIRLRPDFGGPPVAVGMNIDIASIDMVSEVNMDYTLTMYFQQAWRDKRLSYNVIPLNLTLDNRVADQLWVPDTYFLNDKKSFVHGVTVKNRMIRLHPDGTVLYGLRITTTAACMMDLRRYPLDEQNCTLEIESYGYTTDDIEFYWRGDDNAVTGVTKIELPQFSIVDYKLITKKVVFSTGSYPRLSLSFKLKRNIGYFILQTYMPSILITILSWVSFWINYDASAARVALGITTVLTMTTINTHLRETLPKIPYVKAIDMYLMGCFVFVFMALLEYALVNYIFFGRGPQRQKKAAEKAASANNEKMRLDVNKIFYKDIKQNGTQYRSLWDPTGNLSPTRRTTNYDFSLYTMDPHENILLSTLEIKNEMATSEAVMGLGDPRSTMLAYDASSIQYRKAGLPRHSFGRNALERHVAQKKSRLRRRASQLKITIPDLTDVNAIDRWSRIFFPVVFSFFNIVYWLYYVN
Sequence (Q8N1C3 36-465): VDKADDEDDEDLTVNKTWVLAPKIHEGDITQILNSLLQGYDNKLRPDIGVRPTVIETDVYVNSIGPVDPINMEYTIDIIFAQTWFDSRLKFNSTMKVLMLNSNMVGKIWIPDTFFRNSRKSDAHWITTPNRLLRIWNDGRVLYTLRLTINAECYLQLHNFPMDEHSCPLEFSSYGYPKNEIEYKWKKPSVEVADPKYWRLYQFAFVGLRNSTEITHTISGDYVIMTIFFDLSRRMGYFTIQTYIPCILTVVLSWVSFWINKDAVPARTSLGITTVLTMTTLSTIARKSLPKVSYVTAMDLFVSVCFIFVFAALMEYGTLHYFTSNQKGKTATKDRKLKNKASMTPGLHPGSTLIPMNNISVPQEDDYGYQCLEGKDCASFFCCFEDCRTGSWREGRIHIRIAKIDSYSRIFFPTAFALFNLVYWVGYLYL
Categorized via Efficacy (GABA)%: Low: < 60%; Mid: ≥ 60% and < 80%; High: ≥ 80%

{"compound": "Cc1nnc2n1-c1ccc(Cl)c(Cl)c1C(c1c(F)cccc1F)=NC2 [Example 5]", "system_tested": "h-GABAA α2β2γ1 (Homo sapiens, UniProt P47869+Q8N1C3)", "qualitative_label": "Low"}
{"compound": "Cc1nnc2n1-c1ccc(C(F)F)c(Cl)c1C(c1c(F)cccc1F)=NC2 [Example 25]", "system_tested": "h-GABAA α2β2γ1 (Homo sapiens, UniProt P47869+Q8N1C3)", "qualitative_label": "High"}
{"compound": "Cc1ccc2c(c1Cl)C(c1c(F)cccc1F)=NCc1n[nH]c(=O)n1-2 [Example 16]", "system_tested": "h-GABAA α2β2γ1 (Homo sapiens, UniProt P47869+Q8N1C3)", "qualitative_label": "Mid"}
{"compound": "Fc1ccccc1C1=NCc2nncn2-c2ccc(Br)c(Cl)c21 [Example 8]", "system_tested": "h-GABAA α2β2γ1 (Homo sapiens, UniProt P47869+Q8N1C3)", "qualitative_label": "Low"}
{"compound": "Clc1cccnc1C1=NCc2nnc(-c3cccnn3)n2-c2ccc(Br)c(Cl)c21 [Example 47]", "system_tested": "h-GABAA α2β2γ1 (Homo sapiens, UniProt P47869+Q8N1C3)", "qualitative_label": "High"}
{"compound": "Cc1nnc2n1-c1ccc(C(F)(F)F)c(Cl)c1C(c1ncccc1F)=NC2 [Example 78]", "system_tested": "h-GABAA α2β2γ1 (Homo sapiens, UniProt P47869+Q8N1C3)", "qualitative_label": "High"}

Input: Band for O=c1[nH]nc2n1-c1ccc(Br)c(Cl)c1C(c1c(F)cccc1F)=NC2 [Example 13] ?
Output: Low

Input: Band for Fc1ccccc1C1=NCc2nnc(-c3cccnn3)n2-c2ccc(C(F)(F)F)c(Cl)c21 [Example 27] ?
Output: Mid

Input: Band for Cc1nnc2n1-c1ccc(I)c(Cl)c1C(c1c(F)cccc1F)=NC2 [Example 41] ?
Output: Mid

Input: Band for O=c1[nH]nc2n1-c1ccc(Br)c(Cl)c1C(c1ccccc1F)=NC2 [Example 26] ?
Output: Low

Input: Band for Fc1cccnc1C1=NCc2nncn2-c2ccc(Br)c(Cl)c21 [Example 29] ?
Output: High

Input: Band for Fc1ccccc1C1=NCc2nnc(C3CC3)n2-c2ccc(Br)c(Cl)c21 [Example 2] ?
Output: High

Input: Band for Fc1cccnc1C1=NCc2nncn2-c2ccc(Cl)c(Cl)c21 [Example 60] ?
Output: High

Input: Band for Fc1cccnc1C1=NCc2nnc(-c3ccncn3)n2-c2ccc(Br)c(Cl)c21 [Example 46] ?
Output: Low

Input: Band for O=c1[nH]nc2n1-c1ccc(Cl)c(Cl)c1C(c1ncccc1F)=NC2 [Example 59] ?
Output: High

Input: Band for Fc1cccc(F)c1C1=NCc2nnc(-c3cccnn3)n2-c2ccc(Cl)c(Cl)c21 [Example 14] ?
Output: Mid

Input: Band for Clc1cccnc1C1=NCc2nnc(-c3ccncn3)n2-c2ccc(Br)c(Cl)c21 [Example 44] ?
Output: Mid

Input: Band for Fc1ccccc1C1=NCc2nnc(-c3cccnn3)n2-c2ccc(Br)c(Cl)c21 [Example 3] ?
Output: High

Input: Band for Fc1cccnc1C1=NCc2nnc(-c3cccnn3)n2-c2ccc(Br)c(Cl)c21 [Example 45] ?
Output: High
